Just for reference, ChEMBL document CHEMBL2069214 is where these values come from.

microsomal CLint overview
- assay.details: Intrinsic clearance in human liver microsomes
- Assay type: ADME, Microsome
- test.context: read-out: CLH

molecule	censor.symbol	microsomal CLint / µL/min/mg
Nc1nc(C2CC2)nc2c1nnn2Cc1cc(C2CC2)n[nH]1	<	7.2
Nc1nc(C2CC2)nc2c1nnn2Cc1ccc(Cl)cc1	<	7.2
Nc1ncnc2c1nnn2CC1CCCCO1 (stereo unspecified)	<	7.2
Nc1nc(-c2ccccc2)nc2c1nnn2CC1CCCCO1 (stereo unspecified)	=	17
COCc1nc(N)c2nnn(CC3CCCCO3)c2n1 (stereo unspecified)	<	7.2
Nc1nc(C2CC2)nc2c1nnn2CC1CCCN(Cc2ccccc2)C1 (stereo unspecified)	=	150
Cc1nc(N)c2nnn(C[C@H]3CN(Cc4nccs4)CCO3)c2n1	<	8
Nc1nc(C2CC2)nc2c1nnn2C[C@H]1CN(Cc2nccs2)CCO1	=	20
Nc1nc(C(F)(F)F)nc2c1nnn2C[C@H]1CN(Cc2ccccn2)CCO1	=	36
CCc1csc(CN2CCO[C@@H](Cn3nnc4c(N)nc(C)nc43)C2)n1	=	15
Cc1ccnc(N2CCCC(Cn3nnc4c(N)nc(C5CC5)nc43)C2)n1 (stereo unspecified)	=	303

----------
- assay.details: Clearance in iv dosed rat
- Type: ADME, organism-based
- test.context: in vivo
Cut-off 30 mL/min/kg on clearance: below means 1.0, at or above means 0.0.

compound.smiles	class.name
Nc1nc(C(F)(F)F)nc2c1nnn2C[C@H]1CN(Cc2ccccn2)CCO1	0.0
Cc1nc(N)c2nnn(C[C@H]3CN(Cc4cc(F)cc(F)c4)CCO3)c2n1	1.0
Nc1nc(C2CC2)nc2c1nnn2C[C@H]1CN(Cc2nccs2)CCO1	0.0
Nc1nc(C2CC2)nc2c1nnn2C[C@H]1CN(Cc2ncccn2)CCO1	0.0
Cc1nc(N)c2nnn(C[C@H]3CN(Cc4nccs4)CCO3)c2n1	1.0
Nc1nc(C(F)(F)F)nc2c1nnn2C[C@H]1CCCO1	0.0
CCc1csc(CN2CCO[C@@H](Cn3nnc4c(N)nc(C)nc43)C2)n1	1.0
CCc1nc(Cn2nnc3c(N)nc(C4CC4)nc32)cs1	1.0

----------
As shown below, each of these molecules has a reported bioavailability value.
- assay.details: Oral bioavailability in dog
- Assay type: ADME, organism-based, Canis lupus familiaris
- test.context: in vivo

compound.smiles	censor.symbol	bioavailability / %
Nc1nc(C(F)(F)F)nc2c1nnn2C[C@H]1CCCO1	=	13
Cc1nc(N)c2nnn(C[C@H]3CN(Cc4nccs4)CCO3)c2n1	=	100
CCc1nc(Cn2nnc3c(N)nc(C4CC4)nc32)cs1	<	5

----------
- assay.details: Intrinsic clearance in rat liver microsomes
- Assay type: ADME, Microsome
- test.context: liver microsomes, read-out: CLH
Recorded microsomal CLint for the following molecules

compound.smiles	microsomal CLint
Cc1nc(N)c2nnn(C[C@H]3CN(Cc4nccs4)CCO3)c2n1	< 14 µL/min/mg
CCc1nc(Cn2nnc3c(N)nc(C4CC4)nc32)cs1	< 14 µL/min/mg
Nc1nc(C2CC2)nc2c1nnn2C[C@H]1CCCO1	< 28 µL/min/mg

----------
- assay.details: Intrinsic clearance in human liver microsomes
- Assay type: ADME, Microsome
- test.context: read-out: CLH
value.type: microsomal CLint

compound	result
Nc1nc(C2CC2)nc2c1nnn2CC1CCCCO1 (stereo not drawn)	< 7.2 µL/min/mg
Nc1nc(C2CC2)nc2c1nnn2CC1CCCOC1 (stereo not drawn)	< 7.2 µL/min/mg
CC(C)n1cc(Cn2nnc3c(N)nc(C4CC4)nc32)cn1	< 7.2 µL/min/mg
